Assignment: determine reported Kd for the given binders.
target: T1, AFP158/HLA-A*02:01 complex (human); test: SPR, crude scFv captured, pMHC analyte;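 also: complex injected at several concentrations over the chip, association phase then running buffer for dissociation, KD derived from on- and off-rates computed from both curves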
T1 construct: flowed as analyte in SPR

Could you please provide reported Kd for AS170036 VL1VH1-57K98F108A (scFv, also called 67-AS170036 VL1VH1-57K98F108A) scFv: QSALTQPRSVSGSPGQSVTISCAGTSSDVGSENYVSWYQQHPGKAPKLMIYQVNKRASGVPDRFSGSKSGNTASLTISGLQAEDEADYYCASYRSSDFNIVFGGGTKLTVLGGGGSGGGGSGGGGSEVQLVESGGGLVQPGGSLRLSCAASGFTFSSYAMSWVRQAPGKGLEWVSTINSGTGKPYYADSVKGRFTISRDNSKNTLYLQMNSLRAEDTAVYYCAKNFFDGSWFLAPPAMDYWGQGTLVTVSSHHHHHH ? Thanks!
3.5 nM

Please list Kd recorded for the binder AS170036 VL1VH1-57M98Q108A (scFv, also called 82-AS170036 VL1VH1-57M98Q108A) scFv: QSALTQPRSVSGSPGQSVTISCAGTSSDVGSENYVSWYQQHPGKAPKLMIYQVNKRASGVPDRFSGSKSGNTASLTISGLQAEDEADYYCASYRSSDQNIVFGGGTKLTVLGGGGSGGGGSGGGGSEVQLVESGGGLVQPGGSLRLSCAASGFTFSSYAMSWVRQAPGKGLEWVSTINSGTGMPYYADSVKGRFTISRDNSKNTLYLQMNSLRAEDTAVYYCAKNFFDGSWFLAPPAMDYWGQGTLVTVSSHHHHHH
5.2 nM

API: the following record is the query input.
Specify measured Kd for AS170036 VL1VH1-57H98F108D (scFv, also called 59-AS170036 VL1VH1-57H98F108D) scFv: QSALTQPRSVSGSPGQSVTISCAGTSSDVGSENYVSWYQQHPGKAPKLMIYQVNKRASGVPDRFSGSKSGNTASLTISGLQAEDEADYYCASYRSSDFNIVFGGGTKLTVLGGGGSGGGGSGGGGSEVQLVESGGGLVQPGGSLRLSCAASGFTFSSYAMSWVRQAPGKGLEWVSTINSGTGHPYYADSVKGRFTISRDNSKNTLYLQMNSLRAEDTAVYYCAKNFFDGSWFLDPPAMDYWGQGTLVTVSSHHHHHH .
1.8 nM
